# System: 947758-054-R-J2-PDC spheroid growth, percent test/control
# Assay remarks: Anticancer human tumor 947758-054-R-J2-PDC patient-derived colon adenocarcinoma cell line growth inhibition [CLK]
# Assay setup: second compound 3.16 µM; first compound 1 µM; stronger effect = lower value; spheroids with HUVEC and MSC
# Description: A high-throughput screen of multi-cell type tumor spheroids was designed to identify active combinations of […] and targeted small molecules. Complex spheroids include a stromal component modeled by human endothelial cells (HUVEC) and fibroblasts modeled by human mesenchymal stem cells (MSCs). […] Compounds. […] If the clinical Cmax for an agent had not been determined, the highest concentration tested was 10 microM. […]
Quantity kind: viability, T/C (%)
Write the number in % without appending the unit.

Below, 4 compounds whose answers are already recorded.
{"Compound": "Nc1ccn(C2OC(CO)C(O)C2(F)F)c(=O)n1 (stereo not given) + CNC(=O)c1ccc(Nc2nc(OC3CCCC3)c3c(-c4ccc5nc(C)oc5c4)c[nH]c3n2)c(OC)c1", "Target under test": "947758-054-R-J2-PDC spheroid growth, percent test/control", "Unit name": "%", "viability, T/C": 7.3}
{"Compound": "CCc1c2c(nc3ccc(O)cc13)-c1cc3c(c(=O)n1C2)COC(=O)[C@]3(O)CC + CN1CCN(c2cc(C(=O)Nc3cc4cc(-c5cnn(C)c5)ccc4cn3)ccn2)CC1", "Target under test": "947758-054-R-J2-PDC spheroid growth, percent test/control", "Unit name": "%", "viability, T/C": 1.64}
{"Compound": "COC1C=CCC(C)C(C)S(=O)(=O)NC(=O)c2ccc3c(c2)N(CC2CCC21)CC1(CCCc2cc(Cl)ccc21)CO3 (stereo not given) + CN1CCN(c2cc(C(=O)Nc3cc4cc(-c5cnn(C)c5)ccc4cn3)ccn2)CC1", "Target under test": "947758-054-R-J2-PDC spheroid growth, percent test/control", "Unit name": "%", "viability, T/C": 1.14}
{"Compound": "COc1ccc([C@@H](O)c2cc(-c3ncnc4cc(N5CCOCC5)ccc34)c(F)cc2Cl)nn1 + CNC(=O)c1ccc(Nc2nc(OC3CCCC3)c3c(-c4ccc5nc(C)oc5c4)c[nH]c3n2)c(OC)c1", "Target under test": "947758-054-R-J2-PDC spheroid growth, percent test/control", "Unit name": "%", "viability, T/C": 24.1}

Given the compound COc1c(OCCCN2CCOCC2)ccc2c3n(c(=NC(=O)c4cnc(N)nc4)nc12)CCN3 + CN1CCN(c2cc(C(=O)Nc3cc4cc(-c5cnn(C)c5)ccc4cn3)ccn2)CC1 , write its reported viability, T/C. 2.02

###

# Tested on: 947758-054-R-J2-PDC spheroid growth, percent test/control
# Assay remarks: Anticancer human tumor 947758-054-R-J2-PDC cell line growth inhibition [CLK];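 note: spheroids exposed to compounds for one week before readout; 100% = DMSO vehicle control wells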
# Assay setup: second compound 10 µM; first compound 0.0316 µM; stronger effect = lower value; spheroids with HUVEC and MSC
Quantity kind: viability, T/C (%)
Write the number in % without appending the unit.

Below, 4 compounds whose answers are already recorded.
{"Compound": "CCN1CCN(Cc2ccc(Nc3ncc(F)c(-c4cc(F)c5nc(C)n(C(C)C)c5c4)n3)nc2)CC1 + CNC(=O)c1ccc(Nc2nc(OC3CCCC3)c3c(-c4ccc5nc(C)oc5c4)c[nH]c3n2)c(OC)c1", "viability, T/C (%)": 35.6}
{"Compound": "Nc1ccn(C2OC(CO)C(O)C2(F)F)c(=O)n1 (stereo not given) + CN1CCN(c2cc(C(=O)Nc3cc4cc(-c5cnn(C)c5)ccc4cn3)ccn2)CC1", "viability, T/C (%)": 0.27}
{"Compound": "Nc1ccccc1NC(=O)c1ccc(CNC(=O)OCc2cccnc2)cc1 + CN1CCN(c2cc(C(=O)Nc3cc4cc(-c5cnn(C)c5)ccc4cn3)ccn2)CC1", "viability, T/C (%)": 0.31}
{"Compound": "CC(Nc1ccc2c(c1)OCCn1cc(N3C(=O)OCC3C(F)F)nc1-2)C(N)=O (stereo not given) + CNC(=O)c1ccc(Nc2nc(OC3CCCC3)c3c(-c4ccc5nc(C)oc5c4)c[nH]c3n2)c(OC)c1", "viability, T/C (%)": 20.7}

Tell me viability, T/C of C=C(F)C(=O)N1CCN(c2nc(OCC3CCCN3C)nc3c2CCN(c2cccc4cccc(Cl)c24)C3)CC1CC#N (stereo not given) + CN1CCN(c2cc(C(=O)Nc3cc4cc(-c5cnn(C)c5)ccc4cn3)ccn2)CC1 when tested on 947758-054-R-J2-PDC spheroid growth, percent test/control. 1.57

Tell me viability, T/C of CCCS(=O)(=O)Nc1ccc(F)c(C(=O)c2c[nH]c3ncc(-c4ccc(Cl)cc4)cc23)c1F + CNC(=O)c1ccc(Nc2nc(OC3CCCC3)c3c(-c4ccc5nc(C)oc5c4)c[nH]c3n2)c(OC)c1 when tested on 947758-054-R-J2-PDC spheroid growth, percent test/control. 24.2

Tell me viability, T/C of CC(Nc1ccc2c(c1)OCCn1cc(N3C(=O)OCC3C(F)F)nc1-2)C(N)=O (stereo not given) + CN1CCN(c2cc(C(=O)Nc3cc4cc(-c5cnn(C)c5)ccc4cn3)ccn2)CC1 when tested on 947758-054-R-J2-PDC spheroid growth, percent test/control. 0.35

Tell me viability, T/C of CCN1CCN(Cc2ccc(Nc3ncc(F)c(-c4cc(F)c5nc(C)n(C(C)C)c5c4)n3)nc2)CC1 + CN1CCN(c2cc(C(=O)Nc3cc4cc(-c5cnn(C)c5)ccc4cn3)ccn2)CC1 when tested on 947758-054-R-J2-PDC spheroid growth, percent test/control. 0.31

Tell me viability, T/C of CC1(C)CCC(CN2CCN(c3ccc(C(=O)NS(=O)(=O)c4ccc(NCC5CCOCC5)c([N+](=O)[O-])c4)c(Oc4cnc5[nH]ccc5c4)c3)CC2)=C(c2ccc(Cl)cc2)C1 + CN1CCN(c2cc(C(=O)Nc3cc4cc(-c5cnn(C)c5)ccc4cn3)ccn2)CC1 when tested on 947758-054-R-J2-PDC spheroid growth, percent test/control. 0.86

Tell me viability, T/C of C#Cc1c(F)ccc2cc(O)cc(-c3ncc4c(N5CC6CCC(C5)N6)nc(OCC56CCCN5CC(F)C6)nc4c3F)c12 (stereo not given) + CNC(=O)c1ccc(Nc2nc(OC3CCCC3)c3c(-c4ccc5nc(C)oc5c4)c[nH]c3n2)c(OC)c1 when tested on 947758-054-R-J2-PDC spheroid growth, percent test/control. 36

###

# Test system: 947758-054-R-J2-PDC spheroid growth, percent test/control
# Assay remarks: Anticancer human tumor 947758-054-R-J2-PDC cell line growth inhibition [CLK]; active = viability on the fitted dose curve at most 10% of control; inactive = the rest;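 note: spheroids exposed to compounds for one week before readout; 100% = DMSO vehicle control wells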
# Assay setup: second compound 3.16 µM; first compound 0.03 µM; spheroids with HUVEC and MSC
Select the correct class. Options are y = active, n = inactive and nothing else.

Observe how each entry below is paired with its result.
{"Compound": "NC(=O)C(=Cn1cnc(-c2cc(C(F)(F)F)cc(C(F)(F)F)c2)n1)c1cncnc1 + CNC(=O)c1ccc(Nc2nc(OC3CCCC3)c3c(-c4ccc5nc(C)oc5c4)c[nH]c3n2)c(OC)c1", "Classification": "n"}
{"Compound": "NC(=O)C(=Cn1cnc(-c2cc(C(F)(F)F)cc(C(F)(F)F)c2)n1)c1cncnc1 + CN1CCN(c2cc(C(=O)Nc3cc4cc(-c5cnn(C)c5)ccc4cn3)ccn2)CC1", "Classification": "y"}
{"Compound": "C=CC(=O)Nc1cc(Nc2nccc(-c3cn(C)c4ccccc34)n2)c(OC)cc1N(C)CCN(C)C + CN1CCN(c2cc(C(=O)Nc3cc4cc(-c5cnn(C)c5)ccc4cn3)ccn2)CC1", "Classification": "y"}
{"Compound": "C=CC(=O)Nc1cc(Nc2nccc(-c3cn(C)c4ccccc34)n2)c(OC)cc1N(C)CCN(C)C + CNC(=O)c1ccc(Nc2nc(OC3CCCC3)c3c(-c4ccc5nc(C)oc5c4)c[nH]c3n2)c(OC)c1", "Classification": "n"}
{"Compound": "CC(C)CC(NC(=O)C(Cc1ccccc1)NC(=O)c1cnccn1)B(O)O (stereo unspecified) + CN1CCN(c2cc(C(=O)Nc3cc4cc(-c5cnn(C)c5)ccc4cn3)ccn2)CC1", "Classification": "y"}

What was the test verdict on CC(C)CC(NC(=O)C(Cc1ccccc1)NC(=O)c1cnccn1)B(O)O (stereo unspecified) + CNC(=O)c1ccc(Nc2nc(OC3CCCC3)c3c(-c4ccc5nc(C)oc5c4)c[nH]c3n2)c(OC)c1 ? y

###

Listed here are compounds together with their documented viability, T/C.
# System: 947758-054-R-J2-PDC spheroid growth, percent test/control
# Assay remarks: Anticancer human tumor 947758-054-R-J2-PDC cell line growth inhibition [CLK];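 note: spheroids exposed to compounds for one week before readout; 100% = DMSO vehicle control wells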
# Assay setup: second compound 1 µM; first compound 0.0316 µM; stronger effect = lower value; spheroids with HUVEC and MSC
Write the number in % without appending the unit.

Below, 6 compounds whose answers are already recorded.
{"Compound": "CC(=O)O[C@H]1C(=O)[C@@]2(C)[C@H]([C@H](OC(=O)c3ccccc3)[C@]3(O)C[C@H](OC(=O)[C@H](O)[C@@H](NC(=O)c4ccccc4)c4ccccc4)C(C)=C1C3(C)C)[C@]1(OC(C)=O)CO[C@@H]1C[C@@H]2O + CN1CCN(c2cc(C(=O)Nc3cc4cc(-c5cnn(C)c5)ccc4cn3)ccn2)CC1", "Target under test": "947758-054-R-J2-PDC spheroid growth, percent test/control", "viability, T/C, %": 0.1}
{"Compound": "CC(Nc1ccc2c(c1)OCCn1cc(N3C(=O)OCC3C(F)F)nc1-2)C(N)=O (stereo not given) + CNC(=O)c1ccc(Nc2nc(OC3CCCC3)c3c(-c4ccc5nc(C)oc5c4)c[nH]c3n2)c(OC)c1", "Target under test": "947758-054-R-J2-PDC spheroid growth, percent test/control", "viability, T/C, %": 34.1}
{"Compound": "Cn1ncnc1[C@H]1c2n[nH]c(=O)c3cc(F)cc(c23)N[C@@H]1c1ccc(F)cc1 + CN1CCN(c2cc(C(=O)Nc3cc4cc(-c5cnn(C)c5)ccc4cn3)ccn2)CC1", "Target under test": "947758-054-R-J2-PDC spheroid growth, percent test/control", "viability, T/C, %": 0.18}
{"Compound": "COc1cccc2c1C(=O)c1c(O)c3c(c(O)c1C2=O)CC(O)(C(=O)CO)CC3OC1CC(N)C(O)C(C)O1 (stereo not given) + CNC(=O)c1ccc(Nc2nc(OC3CCCC3)c3c(-c4ccc5nc(C)oc5c4)c[nH]c3n2)c(OC)c1", "Target under test": "947758-054-R-J2-PDC spheroid growth, percent test/control", "viability, T/C, %": 28.7}
{"Compound": "CC1(C)CCC(CN2CCN(c3ccc(C(=O)NS(=O)(=O)c4ccc(NCC5CCOCC5)c([N+](=O)[O-])c4)c(Oc4cnc5[nH]ccc5c4)c3)CC2)=C(c2ccc(Cl)cc2)C1 + CNC(=O)c1ccc(Nc2nc(OC3CCCC3)c3c(-c4ccc5nc(C)oc5c4)c[nH]c3n2)c(OC)c1", "Target under test": "947758-054-R-J2-PDC spheroid growth, percent test/control", "viability, T/C, %": 64.8}
{"Compound": "Nc1ccn(C2OC(CO)C(O)C2(F)F)c(=O)n1 (stereo not given) + CNC(=O)c1ccc(Nc2nc(OC3CCCC3)c3c(-c4ccc5nc(C)oc5c4)c[nH]c3n2)c(OC)c1", "Target under test": "947758-054-R-J2-PDC spheroid growth, percent test/control", "viability, T/C, %": 29.1}

Given the compound Nc1ccn(C2OC(CO)C(O)C2(F)F)c(=O)n1 (stereo not given) + CN1CCN(c2cc(C(=O)Nc3cc4cc(-c5cnn(C)c5)ccc4cn3)ccn2)CC1 , write its reported viability, T/C. 0.13

Given the compound CC1COCCN1c1cc(C2(S(C)(=N)=O)CC2)nc(-c2ccnc3[nH]ccc23)n1 (stereo not given) + CN1CCN(c2cc(C(=O)Nc3cc4cc(-c5cnn(C)c5)ccc4cn3)ccn2)CC1 , write its reported viability, T/C. 0.17

Given the compound O=C(c1cc(Cc2n[nH]c(=O)c3ccccc23)ccc1F)N1CCN(C(=O)C2CC2)CC1 + CN1CCN(c2cc(C(=O)Nc3cc4cc(-c5cnn(C)c5)ccc4cn3)ccn2)CC1 , write its reported viability, T/C. 0.13

Given the compound C=C(F)C(=O)N1CCN(c2nc(OCC3CCCN3C)nc3c2CCN(c2cccc4cccc(Cl)c24)C3)CC1CC#N (stereo not given) + CNC(=O)c1ccc(Nc2nc(OC3CCCC3)c3c(-c4ccc5nc(C)oc5c4)c[nH]c3n2)c(OC)c1 , write its reported viability, T/C. 38.5
